Field IC50: reported value for hCRTH2 receptor (Homo sapiens (Human)); entries drawn from several documents.
Numbers only, in nM.

Use the examples below as a reference point.
Cc1ccc2c(n1)c(-c1ccc(C(F)(F)F)cc1CN(Cc1ccccc1)C(=O)C1CC1)cn2CC(=O)O; 14
Cc1c(Cc2ccccc2S(=O)(=O)c2ccc(F)cc2)c2c(n1CC(=O)O)CC(C)(C)NC2=O; 5
CCN(Cc1cc(F)ccc1-n1cc(CC(=O)O)c2cccnc21)C(=O)C1CC1; 17

Now turn to the next compound.
Q) What reported IC50 corresponds to `Cc1c(CC(=O)O)c(-c2ccccc2)nn1Cc1ccccc1S(=O)(=O)N1CCOCC1` on hCRTH2 receptor (Homo sapiens (Human))?
A) 74
